The entries below are paired with their reported LC50, CL.
System: Cabbage Looper [Trichoplusia ni (Hubner)]
Assay: Cabbage looper insecticidal test
Type: in vivo
Details: second-instar larvae, percent in solution; 3-5 days
Report the figure in % without appending any unit label.

Incoming: Provide one value: measured LC50, CL of CC(C)C(=Nc1ccc(Br)c(Br)c1)OCc1ccc(F)c(Oc2ccc(F)cc2)c1
Outgoing: 0.00029

Incoming: Provide one value: measured LC50, CL of CCOc1ccc(N=C(OCc2cccc(Oc3ccc(F)cc3)c2)C(C)C)cc1Br
Outgoing: 0.0008

Incoming: Provide one value: measured LC50, CL of CC(C)c1ccc(N=C(OCc2cccc(Oc3ccccc3)c2)C(C)(C)C)cc1
Outgoing: 0.007

Incoming: Provide one value: measured LC50, CL of FC(F)(F)c1cccc(N=C(OCc2cccc(Oc3ccccc3)c2)C2CC2)c1
Outgoing: 0.013

Incoming: Provide one value: measured LC50, CL of CC(C)C(=Nc1ccc(C(F)(F)F)cc1)OCc1ccc(F)c(Oc2ccc(F)cc2)c1 [Compound 314]
Outgoing: 0.00005

Incoming: Provide one value: measured LC50, CL of CC(C)C(=Nc1cccc(SC(F)(F)F)c1)OCc1cccc(Oc2ccc(F)cc2)c1
Outgoing: 0.0024

Incoming: Provide one value: measured LC50, CL of CC(C)C(=Nc1ccc(F)cc1)OCc1cccc(Oc2cccc(Cl)c2)c1
Outgoing: 0.004

Incoming: Provide one value: measured LC50, CL of N#CC(=Nc1ccc(Cl)cc1)OCc1cccc(Oc2ccccc2)c1
Outgoing: 0.02

We now examine a further compound.
Incoming: Provide one value: measured LC50, CL of CC(C)C(=Nc1ccc(C(C)(C)C)cc1)OCc1cccc(Oc2ccc(Cl)cc2)n1
Outgoing: 0.0075

---

System: Cabbage Looper [Trichoplusia ni (Hubner)]
Experiment: Cabbage looper insecticidal test
Type: in vivo
Settings: second-instar larvae, percent in solution; 3-5 days
Method: The compounds in Tables 1 and 2 above were tested for insecticidal activity using the following testing procedures. LC50 values, based on the results of these tests and calculated according to dosage-mortality curves, are expressed in Table 3. Cabbage Looper [Trichoplusia ni (Hubner)]: Test compounds were diluted in a 50-50 acetone-water solution. […] Mortality of the larvae was recorded 3-5 days later. […]
Could you please mark T for values of LC50, CL below 0.007% and F for values at or above it?

Some solved cases for reference:
Incoming: Hello, is LC50, CL of the following molecule strictly smaller than 0.007%? CC(C)C(=Nc1ccc(Cl)c(C(F)(F)F)c1)OCc1cccc(Oc2cccc(F)c2)c1 [Compound 195]
Outgoing: T

Incoming: Hello, is LC50, CL of the following molecule strictly smaller than 0.007%? CC(C)C(=Nc1cccc(I)c1)OCc1cccc(Oc2ccc(F)cc2)c1 [Compound 255]
Outgoing: T

Incoming: Hello, is LC50, CL of the following molecule strictly smaller than 0.007%? CC(C)C(=Nc1ccc(F)c(F)c1)OCc1cccc(Oc2ccc(Cl)cc2)n1 [Compound 559]
Outgoing: T

Incoming: Hello, is LC50, CL of the following molecule strictly smaller than 0.007%? CC(C)(Cl)C(=Nc1ccc(Cl)c2ccccc12)OCc1cccc(Oc2ccccc2)c1 [Compound 111]
Outgoing: F

Incoming: Hello, is LC50, CL of the following molecule strictly smaller than 0.007%? O=[N+]([O-])c1ccc(N=C(OCc2cccc(Oc3ccccc3)c2)C(Cl)Cl)cc1 [Compound 173]
Outgoing: F

Further cases:
Incoming: Hello, is LC50, CL of the following molecule strictly smaller than 0.007%? CC(C)C(=Nc1ccc(F)c(Br)c1)OCc1cccc(Oc2ccc(Br)cc2)c1 [Compound 276]
Outgoing: T

Incoming: Hello, is LC50, CL of the following molecule strictly smaller than 0.007%? Cc1ccc(N=C(OCc2cccc(Oc3ccccc3)c2)C(C)C)c(Cl)c1 [Compound 94]
Outgoing: T

Incoming: Hello, is LC50, CL of the following molecule strictly smaller than 0.007%? COc1ccc(C)cc1N=C(OCc1cccc(Oc2ccccc2)c1)C(C)C [Compound 150]
Outgoing: F
